Assay: small-molecule microarray binders of probe aDKK1, primary screen, biochemical, biotinylated probe, 635/667 nm fluorescence (AID 1099);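 also: score merges 667nm spot fluorescence with signal to noise across triplicate slides; reference of the scale not given here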
Conditions: higher = more signal
measured-property: composite z-score
Please give only the number in your answer, with no unit.

Lookup: So what's the measured composite z-score for this one? CO[C@H]1COC(=O)CC=C[C@H](C)[C@H](OC)COC(=O)[C@@H](C)NC(=O)CC=C[C@@H]1C
Found: -0.407

Lookup: So what's the measured composite z-score for this one? COc1ccc(COC(=O)NN=C2C[C@@H](O)[C@@H](O)[C@@H]3[C@@H]4C(=O)N(c5cccc(Oc6ccccc6)c5)C(=O)[C@@H]4CC[C@H]23)cc1
Found: 0.543

Lookup: So what's the measured composite z-score for this one? CO[C@@H]1COC(=O)[C@@H]2CCCN2C(=O)[C@@H](C)COC(=O)CCC[C@H]1C
Found: -0.331

Lookup: So what's the measured composite z-score for this one? COC(=O)[C@H](C)NC(=O)CCC1CC(OC(=O)NCc2cccc3ccccc23)CC2(CCCC(COC(=O)NCc3ccccc3)O2)O1 (some centres not stated)
Found: -0.132

Lookup: So what's the measured composite z-score for this one? CCN1C(C)=C(C(=O)OC)[C@@H](c2ccccc2)N2C(=O)[C@](O)(C(=O)OC)CC(C(C)=O)=C12
Found: -0.324

Lookup: So what's the measured composite z-score for this one? CO[C@H]1COC(=O)[C@H](C)COC(=O)[C@H](C)NC(=O)CC=C[C@H]1C
Found: -0.579

Lookup: So what's the measured composite z-score for this one? CCN1C(=O)[C@H]2[C@H]3[C@H](O)[C@H](O)CC(=NOC(C)CN4CCCc5nc(C)c(C)cc54)[C@@H]3CC[C@H]2C1=O (some centres not stated)
Found: 0.0478

====

Assay: small-molecule microarray binders of probe aShh, primary screen, biochemical, biotinylated probe, 635/667 nm fluorescence (AID 1114);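 also: probe is biotin-labelled aShh protein from a stem cell growth factor screen; measures binding of labelled protein to compounds printed on the slide; score merges feature fluorescence at 667 nm with signal-to-noise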
Settings: higher = more signal
Please respond with reported composite z-score for every item in the list.
Please give only the number in your answer, with no unit.

Lookup: So what's the measured composite z-score for this one? CCOC(=O)[C@H](Cc1ccccc1)NC(=O)CCC1CC(OC(=O)NCc2cccc3ccccc23)CC2(CCCC(COC(=O)NCC3CCCCC3)O2)O1 (stereo partly drawn)
Found: 0.0596

Lookup: So what's the measured composite z-score for this one? O=C1[C@H]2[C@H]3[C@H](O)[C@H](O)CC(=NO[C@@H]4O[C@H](CO)[C@@H](O)[C@H](O)[C@H]4O)[C@@H]3CC[C@H]2C(=O)N1c1cccc(Oc2ccccc2)c1
Found: -0.0362

Lookup: So what's the measured composite z-score for this one? CC(=O)OC[C@H]1O[C@H](CC=NOC(C)CN2CCCCc3nc(C)c(C)cc32)C=C[C@@H]1OC(C)=O (stereo partly drawn)
Found: -0.179

====

Target: Follistatin-related protein 3 (Homo sapiens)
Assay: FSTL3 binders on small-molecule microarrays, primary screen, biochemical, small-molecule microarray, 635 nm fluorescence (AID 1105);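 also: score merges emission near 667 nm and signal to noise per printed spot across three slides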
Conditions: FSTL3 binding, higher = more signal
measured-property: composite z-score
Please give only the number in your answer, with no unit.

Lookup: So what's the measured composite z-score for this one? CC(C)CON=C1C[C@@H](O)[C@@H](O)[C@@H]2[C@@H]3C(=O)N(C(C)(C)C)C(=O)[C@@H]3CC[C@@H]12
Found: 0.85

Lookup: So what's the measured composite z-score for this one? COc1ccc2c(c1)O[C@@H](c1cccc(C(F)(F)F)c1)[C@H](O)C2=O
Found: 0.416

Lookup: So what's the measured composite z-score for this one? COC(=O)[C@@H]1CC[C@H](C)[C@@H](c2ccc(Br)cc2)N1C(=O)C(F)(F)F
Found: -0.324

Lookup: So what's the measured composite z-score for this one? C=CC[C@@H]1C=C[C@H](ON=C[C@@H](NS(=O)(=O)c2ccc(C)cc2)[C@H](C)C=CCC(=O)OC)[C@@H](CO)O1
Found: 0.566

Lookup: So what's the measured composite z-score for this one? COC(=O)CC=C[C@@H](C)[C@@H](C=NOC(C)CN1CCCCc2nc(C)c(C)cc21)NS(=O)(=O)c1ccc(C)cc1 (stereo partly drawn)
Found: 0.437

Lookup: So what's the measured composite z-score for this one? CCc1cc2c(nc1CC)CCN(CCC(C)=NOC(C)CN1CCCCc3nc(C)c(C)cc31)C2 (stereo not drawn)
Found: 1.19

Lookup: So what's the measured composite z-score for this one? C#CCCCON=C1C[C@@H](O)[C@@H](O)[C@@H]2[C@@H]3C(=O)N([C@@H](C)c4ccccc4)C(=O)[C@@H]3CC[C@@H]12
Found: -0.447

Lookup: So what's the measured composite z-score for this one? O=C1CCCC=C1C(O)COCc1ccccc1 (stereo not drawn)
Found: -0.171
